Tested on: SNB-75 CNS
Assay: NCI tumour cell line growth inhibition, 48 h
reported_endpoint: TGI (µM)
Answer in µM, number only, no unit symbol.

CCN(CC)c1ccc2c(c1)OC(N)=C(C#N)C2c1cc(OC)c2c(c1)OCO2 (stereo unspecified) : 42.5

Challenge: Sample `CC(C)(C)NC(NC(C)(C)C)=C(/C=C(/Cl)[N+](=O)[O-])[N+](=O)[O-]` — what was its TGI?
Response given: 87.2

Challenge: Recorded TGI for `CCN(CC)CCC(=O)/C=C/c1ccccc1` , please?
Response given: 28.8

---

Test system: SK-MEL-5 melanoma
Experiment: NCI tumour cell line growth inhibition, 48 h
Listing: TGI of selected compounds

CNC(C#N)c1ccc(OC)cc1 (stereo unspecified) : > 100 µM
COC(=O)c1cc2c(s1)C(=O)c1ccccc1-2 : > 100 µM

Challenge: // query TGI value for entry `C=COCCCOc1ccccc1`
Response given: > 100 µM

Challenge: Report TGI for `N=C1/C(=C/c2ccc(F)cc2)C(=O)N=C2SC=NN12` please.
Response given: > 100 µM

Challenge: Param item = `CCN(CC)CCC(=O)/C=C/c1ccccc1` ; retrieve measured TGI.
Response given: 44.8 µM

Challenge: Would you mind telling me what TGI value was observed for CC(C)(Cl)C(Br)CCC(C)(Cl)C(Br)CBr (stereo unspecified) ?
Response given: 34.5 µM

Challenge: Which value of TGI has been reported for O=c1cnn(C2OC(C(O)CO)C(O)C2O)c(=O)[nH]1 (stereo unspecified) in the records?
Response given: > 100 µM

Challenge: Quick one: TGI for `NC(=O)NC1C(c2ccccc2)=C1c1ccccc1` ?
Response given: 23.6 µM

---

Parameter GI50: see the listing below.
Test system: SF-539 CNS
Experiment: NCI tumour cell line growth inhibition, 48 h

Solved cases (3 shown):
CCCCCCCCCCCCCC1=NC(C)(C)CN1C(C)C : 1.65 µM
CCC(C)n1ncn(-c2ccc(N3CCN(c4ccc(OCC5COC(Cn6cncn6)(c6ccc(Cl)cc6Cl)O5)cc4)CC3)cc2)c1=O (configuration not stated) : 7.73 µM
CC(C)CCN1c2nc(Nc3cc(F)c(O)c(F)c3)ncc2N(C)C(=O)C1C (configuration not stated) : 4.26 µM

Challenge: Return GI50 measured with SF-539 CNS given this molecule: `C=C(CNCc1ccccc1)c1ccc(C(=O)Nc2ccccc2N)cc1`
Response given: 7.63 µM

Challenge: # get_value(readout= GI50, system= SF-539 CNS) for CCCCCCCCCCCCOC1C(C(COC2OC(C3COC(C)(C)O3)C3OC(C)(C)OC23)NC(=O)Nc2ccc(C(=O)O)cc2)OC2OC(C)(C)OC21 (configuration not stated)
Response given: 1.72 µM

Challenge: Give SF-539 CNS GI50 for `CCN(CC)CCOc1ccc(-c2nc3cc(Cl)ccc3s2)cc1`
Response given: 1.6 µM

Challenge: Look up GI50 with SF-539 CNS for this molecule: `O=C(Cc1ccc(/C=C/C(=O)c2ncc[nH]2)cc1)Nc1cc(F)c(F)c(F)c1`
Response given: 3.56 µM

---

Entries and their GI50 values follow.
Tested on: HCC-2998 colon
Experiment: NCI tumour cell line growth inhibition, 48 h

Please review the following examples before continuing.
CCC[CH2][Sn]1([CH2]CCC)[O]N=C(c2ccccc2)C(c2ccccc2)[O]1 (centres undefined) : 2.18 µM
OC[C@H]1C[C@](O)(c2ccc(Cl)cc2)[C@@H](c2ccc(Cl)cc2)O1 : 23.8 µM
CC(C)=CC/C=C(/C)[C@H]1CC[C@]2(C)[C@@H]1CC[C@@H]1[C@@]3(C)CCCNC(C)(C)[C@@H]3CC[C@]12C : 1.97 µM

Consider the additional molecule presented here.
Challenge: May I ask what GI50 has been recorded for `COc1cc(N(CCC#N)CCC#N)ccc1/C(N=Nc1ccc([N+](=O)[O-])cc1)=N/NC(=O)c1cc(Br)ccc1O` ?
Response given: 40.9 mg/L
